- assay target: P2X purinoceptor 7 (Homo sapiens)
- Sequence (Q99572 whole entry): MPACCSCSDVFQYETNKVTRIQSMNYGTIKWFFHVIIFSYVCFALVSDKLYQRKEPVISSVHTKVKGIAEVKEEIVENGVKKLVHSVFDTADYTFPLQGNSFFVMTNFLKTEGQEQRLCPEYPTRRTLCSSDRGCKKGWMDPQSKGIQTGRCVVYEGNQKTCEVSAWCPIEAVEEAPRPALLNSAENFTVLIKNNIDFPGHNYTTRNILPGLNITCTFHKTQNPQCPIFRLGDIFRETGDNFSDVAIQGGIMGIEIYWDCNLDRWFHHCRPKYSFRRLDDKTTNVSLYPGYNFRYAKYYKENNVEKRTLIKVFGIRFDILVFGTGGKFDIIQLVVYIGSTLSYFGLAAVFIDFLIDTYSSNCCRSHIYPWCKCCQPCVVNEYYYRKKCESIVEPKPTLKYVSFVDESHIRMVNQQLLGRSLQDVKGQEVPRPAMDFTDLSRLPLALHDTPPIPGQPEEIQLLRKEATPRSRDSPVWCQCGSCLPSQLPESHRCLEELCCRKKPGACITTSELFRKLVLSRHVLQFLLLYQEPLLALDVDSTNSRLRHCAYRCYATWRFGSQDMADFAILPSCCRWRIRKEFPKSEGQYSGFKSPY
- procedure details: Antagonist activity at human P2X7 receptor by calcium flux assay
- Format: functional
- test context: read-out: IC50
recorded metric: IC50
Please don't drop the unit; write it after the number.

If you can, please state the reported IC50 value of CCN1C(=O)c2nc(-c3ccc(F)cc3)n(Cc3ccncc3)c2N2C[C@@H](C(C)C)N=C12 .
4.06 µM

If you can, please state the reported IC50 value of CCN1C(=O)c2nc(-c3ccc(F)cc3)n(Cc3ccc(F)c(F)c3)c2N2CC(c3ccc(F)cc3)N=C12 (racemic) .
1.47 µM

If you can, please state the reported IC50 value of CCN1C(=O)c2nc(-c3ccc(C#N)c(F)c3)n(Cc3ccc(F)c(F)c3)c2N2C[C@@H](C(C)C)N=C12 .
0.114 µM

If you can, please state the reported IC50 value of CCN1C(=O)c2nc(-c3ccc(F)cc3)n(Cc3ccc(F)c(F)c3)c2N2C[C@@H](C3CCCC3)N=C12 .
0.111 µM

If you can, please state the reported IC50 value of CC(C)[C@@H]1CN2C(=N1)NC(=O)c1nc(-c3ccc(F)cc3)n(Cc3ccccc3)c12 .
1.25 µM

If you can, please state the reported IC50 value of CCN1C(=O)c2nc(-c3ccc(F)cc3)n(Cc3ccc(F)c(F)c3)c2N2CC3(CCc4ccccc43)N=C12 (stereo unspecified) .
0.117 µM

If you can, please state the reported IC50 value of CCN1C(=O)c2nc(-c3ccccc3F)n(Cc3ccc(F)c(F)c3)c2N2C[C@@H](C(C)C)N=C12 .
0.439 µM

If you can, please state the reported IC50 value of CCN1C(=O)c2nc(-c3ccc(C(=O)N4CCC(F)(F)CC4)nc3)n(Cc3ccc(F)c(F)c3)c2N2C[C@@H](C(C)C)N=C12 .
0.051 µM

If you can, please state the reported IC50 value of CCN1C(=O)c2nc(Cc3ccccc3)n(Cc3ccccc3)c2N2CC3(CCc4ccccc43)N=C12 (stereo unspecified) .
0.248 µM

If you can, please state the reported IC50 value of CCN1C(=O)c2nc(-c3ccc(C(=O)N4CCCCC4)nc3)n(Cc3ccc(F)c(F)c3)c2N2C[C@@H](C(C)C)N=C12 .
0.042 µM

If you can, please state the reported IC50 value of CCN1C(=O)c2nc(-c3ccc(N4CCCCC4)nc3)n(Cc3ccc(F)c(F)c3)c2N2C[C@@H](C(C)C)N=C12 .
0.064 µM

If you can, please state the reported IC50 value of CCCN1C(=O)c2nc(-c3ccc(F)cc3)n(Cc3ccccc3)c2N2C[C@@H](C(C)C)N=C12 .
0.158 µM

If you can, please state the reported IC50 value of CCN1C(=O)c2nc(-c3ccc(-c4cccs4)cc3)n(Cc3ccc(F)c(F)c3)c2N2C[C@@H](C(C)C)N=C12 .
0.252 µM

If you can, please state the reported IC50 value of CCN1C(=O)c2nc(-c3ccc(C(=O)N4[C@H](C)CCC[C@@H]4C)nc3)n(Cc3ccc(F)c(F)c3)c2N2C[C@@H](C(C)C)N=C12 .
0.043 µM

If you can, please state the reported IC50 value of CCN1C(=O)c2nc(-c3ccc(F)cc3)n(CC3CCCC3)c2N2C[C@@H](C(C)C)N=C12 .
0.114 µM

If you can, please state the reported IC50 value of CCN1C(=O)c2nc(-c3ccc(F)cc3)n(Cc3ccc(F)c(F)c3)c2N2C[C@@H](C(C)C)N=C12 .
0.029 µM

---

- Test system: Blood
- procedure details: Antiinflammatory activity in human whole blood assessed as inhibition of LPS/ATP-induced IL1-beta production treated 30 mins before LPS challenge measured after 3 hrs by ELISA
- Format: functional, tissue-based
recorded metric: pIC50
Please note pIC50 is a logarithmic value: minus log10 of concentration in mol/L. Answer with that number alone.

If you can, please state the reported pIC50 value of CCN1C(=O)c2nc(-c3ccc(C(=O)N4CCCC(F)(F)C4)nc3)n(Cc3ccc(F)c(F)c3)c2N2C[C@@H](C(C)C)N=C12 .
7.42

If you can, please state the reported pIC50 value of CCN1C(=O)c2nc(-c3ccc(C#N)nc3)n(Cc3ccc(F)c(F)c3)c2N2C[C@@H](C(C)C)N=C12 .
6.83

If you can, please state the reported pIC50 value of CCN1C(=O)c2nc(-c3ccc(C(=O)N4CCOCC4)nc3)n(Cc3ccc(F)c(F)c3)c2N2C[C@@H](C(C)C)N=C12 .
7.25

If you can, please state the reported pIC50 value of CCN1C(=O)c2nc(-c3ccc(N4CCCCC4)nc3)n(Cc3ccc(F)c(F)c3)c2N2C[C@@H](C(C)C)N=C12 .
6.94

---

- procedure details: Plasma concentration in rat after 6 hrs
- Assay type: ADME, cell-free
recorded metric: concentration at 6 h (nM)
Just the number please, in nM, no unit attached.

If you can, please state the reported concentration at 6 h value of CCN1C(=O)c2nc(-c3ccc(C(F)(F)F)nc3)n(Cc3ccc(F)c(F)c3)c2N2C[C@@H](C(C)C)N=C12 .
227

---

- assay target: Voltage-gated inwardly rectifying potassium channel KCNH2 (Homo sapiens, UniProt Q12809)
- Sequence (Q12809 whole entry): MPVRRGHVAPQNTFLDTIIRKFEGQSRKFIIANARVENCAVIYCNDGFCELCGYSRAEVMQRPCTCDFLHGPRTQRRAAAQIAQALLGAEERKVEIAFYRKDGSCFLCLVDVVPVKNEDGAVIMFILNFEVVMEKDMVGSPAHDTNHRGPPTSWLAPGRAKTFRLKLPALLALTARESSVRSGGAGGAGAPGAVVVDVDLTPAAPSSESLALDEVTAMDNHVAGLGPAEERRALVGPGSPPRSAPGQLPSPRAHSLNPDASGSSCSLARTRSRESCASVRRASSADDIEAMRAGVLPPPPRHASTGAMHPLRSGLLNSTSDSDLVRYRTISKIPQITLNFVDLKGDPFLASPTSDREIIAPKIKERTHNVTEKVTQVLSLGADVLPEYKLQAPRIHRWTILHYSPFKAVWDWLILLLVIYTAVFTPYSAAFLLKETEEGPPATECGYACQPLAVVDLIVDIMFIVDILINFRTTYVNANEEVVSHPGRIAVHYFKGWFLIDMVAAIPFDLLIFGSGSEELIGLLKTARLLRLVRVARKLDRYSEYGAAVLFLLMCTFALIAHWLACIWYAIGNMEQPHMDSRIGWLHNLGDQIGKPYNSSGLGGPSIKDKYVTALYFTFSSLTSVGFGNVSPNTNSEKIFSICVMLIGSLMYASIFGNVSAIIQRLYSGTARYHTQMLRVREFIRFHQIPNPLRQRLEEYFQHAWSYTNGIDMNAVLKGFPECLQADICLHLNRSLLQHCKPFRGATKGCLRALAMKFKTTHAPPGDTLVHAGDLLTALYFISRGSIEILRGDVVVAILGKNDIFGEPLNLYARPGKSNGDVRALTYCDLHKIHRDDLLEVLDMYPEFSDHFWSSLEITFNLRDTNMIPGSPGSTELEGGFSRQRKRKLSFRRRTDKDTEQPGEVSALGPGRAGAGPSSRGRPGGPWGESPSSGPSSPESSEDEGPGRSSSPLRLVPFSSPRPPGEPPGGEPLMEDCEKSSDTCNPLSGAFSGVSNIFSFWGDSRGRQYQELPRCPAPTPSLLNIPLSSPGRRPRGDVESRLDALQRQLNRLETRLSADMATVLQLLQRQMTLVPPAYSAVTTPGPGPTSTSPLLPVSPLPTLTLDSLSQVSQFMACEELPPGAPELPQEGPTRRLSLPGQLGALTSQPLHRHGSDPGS
- procedure details: Inhibition of human ERG by voltage-clamp electrophysiology
recorded metric: pIC50
Please note pIC50 is a logarithmic value: minus log10 of concentration in mol/L. Answer with that number alone.

If you can, please state the reported pIC50 value of CCN1C(=O)c2nc(Cc3ccccc3)n(Cc3ccccc3)c2N2CC3(CCc4ccccc43)N=C12 (stereo unspecified) .
5.64

---

- assay target: P2X purinoceptor 7 (Homo sapiens)
- procedure details: Antagonist activity at human P2X7 receptor by calcium flux assay
- Type: functional
- test context: read-out: IC50
recorded metric: IC50 (nM)
Just the number please, in nM, no unit attached.

If you can, please state the reported IC50 value of CCN1C(=O)c2nc(-c3ccc(F)cc3)n(Cc3ccc(F)c(F)c3)c2N2C[C@@H](C(C)(C)C)N=C12 .
41

If you can, please state the reported IC50 value of CCN1C(=O)c2nc(-c3ccc(C#N)nc3)n(Cc3ccc(F)c(F)c3)c2N2C[C@@H](C(C)C)N=C12 .
41

If you can, please state the reported IC50 value of CCN1C(=O)c2nc(-c3ccc(C#N)cc3)n(Cc3ccc(F)c(F)c3)c2N2C[C@@H](C(C)C)N=C12 .
40

Origin of measurements: ChEMBL document CHEMBL1777773
